# procedureText: in vitro
# runConditions: beagle, dog, plasma
readoutLabel: fraction unbound at 3 h, 2 µM
Quick one: just the number, no unit, thanks!

IN: Return reported fraction unbound at 3 h, 2 µM. Input compound: COc1cc(-c2cn(C)c(=O)c(C)c2C)cc(OC)c1CN1CC[C@H](N2CCN(c3ccc(N[C@H]4CCC(=O)NC4=O)cc3F)CC2)C(F)(F)C1 [Compound 1]
OUT: 0.0646

---

# procedureText: physchem
# runConditions: 37 °C, pH 5, fessif, thermodynamic from solid
readoutLabel: Solubility

IN: Return reported Solubility. Input compound: COc1cc(-c2cn(C)c(=O)c(C)c2C)cc(OC)c1CN1CC[C@H](N2CCN(c3ccc(N[C@H]4CCC(=O)NC4=O)cc3F)CC2)C(F)(F)C1 [Form P]
OUT: 100 to 300 µg/mL
